Origin of the recorded values: ChEMBL document CHEMBL1208708

# method-notes: Octanol-TAPSO distribution coefficient, log D of the compound at pH 7.4 by spectrophotometric analysis
# Type: physicochemical
# test-conditions: octanol/TAPSO buffer
Answer each item with its documented logD.
Please state the value as a number alone, without comment.

Prompt line: # get_value(readout='logD', item= `CCOc1cc(CN2CCC(NC(=O)c3ccc(NC)nc3)CC2)cc(OCC)c1-c1ccccc1` )
Response line: 3.13

Prompt line: # get_value(readout='logD', item= `CCOc1cc(CN2CCC(NC(=O)c3cncc(C)c3)CC2)ccc1C` )
Response line: 3.03

Prompt line: # get_value(readout='logD', item= `CCOc1cc(CN2CCC(NC(=O)c3cncc(C)c3)CC2)cc(OCC)c1-c1ccc(F)cc1` )
Response line: 4.01

Prompt line: # get_value(readout='logD', item= `CCOc1cc(CN2CCC(NC(=O)c3cncc(C)c3)CC2)cc(OCC)c1Cl` )
Response line: 3.43

Prompt line: # get_value(readout='logD', item= `CCOc1cc(CN2CCC(NC(=O)c3ccc(NC)nc3)CC2)cc(OCC)c1-c1ccc(F)cc1` )
Response line: 3.83
